Values from patent US20200354426A1

EC50: recorded values
# TARGET_UNDER_TEST: Human GIPr (Homo sapiens, UniProt P48546)
# Construct: expressed in transfected cells
# Sequence (P48546 22-466): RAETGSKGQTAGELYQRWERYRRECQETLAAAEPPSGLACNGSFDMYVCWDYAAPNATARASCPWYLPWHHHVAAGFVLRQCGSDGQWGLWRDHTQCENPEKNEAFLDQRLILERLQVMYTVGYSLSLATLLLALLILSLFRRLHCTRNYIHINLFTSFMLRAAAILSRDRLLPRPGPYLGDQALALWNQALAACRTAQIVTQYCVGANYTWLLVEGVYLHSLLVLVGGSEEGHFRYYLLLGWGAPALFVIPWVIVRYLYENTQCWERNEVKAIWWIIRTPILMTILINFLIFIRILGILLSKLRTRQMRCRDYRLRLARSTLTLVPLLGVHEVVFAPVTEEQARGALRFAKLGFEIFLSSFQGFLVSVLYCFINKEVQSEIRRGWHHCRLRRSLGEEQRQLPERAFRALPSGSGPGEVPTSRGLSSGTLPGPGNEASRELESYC
# RUN_DESCRIPTION: cAMP activity assay in assay medium (assay 1)
# Format: cell-based
# EXPERIMENTAL_SETUP: assay medium; Table 4; read-out: hGIPR EC50
Ends that are not written are not given here.

- SUBSTANCE: "HSQGTFTSDYSKYLDSRRAQDFVQWLVRGGKNNRNNIAK-NH2 [g321]"
  EC50, nM: 6.41
- SUBSTANCE: "HSQGTFTSDYSKYLDSERARDFVAWLEAGG-NH2 [g840]"
  EC50, nM: 102

###

# TARGET_UNDER_TEST: Human GLP1R (Homo sapiens)
# Sequence (P43220 24-463): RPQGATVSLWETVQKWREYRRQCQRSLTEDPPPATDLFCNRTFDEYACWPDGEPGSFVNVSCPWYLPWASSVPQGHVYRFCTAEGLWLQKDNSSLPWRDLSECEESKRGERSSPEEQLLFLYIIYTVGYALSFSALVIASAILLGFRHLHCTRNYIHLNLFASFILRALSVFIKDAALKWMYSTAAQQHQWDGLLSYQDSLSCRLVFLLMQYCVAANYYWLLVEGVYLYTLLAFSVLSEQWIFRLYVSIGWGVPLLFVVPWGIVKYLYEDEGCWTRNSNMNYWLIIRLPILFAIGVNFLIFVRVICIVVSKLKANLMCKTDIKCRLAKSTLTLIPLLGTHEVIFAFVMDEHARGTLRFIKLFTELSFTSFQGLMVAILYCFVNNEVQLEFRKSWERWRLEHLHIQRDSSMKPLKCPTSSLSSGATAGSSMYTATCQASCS
# RUN_DESCRIPTION: cAMP activity assay in assay medium (assay 1)
# Assay type: cell-based
# Parameters: expressed in transfected cells
# EXPERIMENTAL_SETUP: assay medium; Table 4; read-out: hGLP1R EC50
Ends that are not written are not given here.

- SUBSTANCE: "HSQGTFTSDYSKYLDSRRAQDFVQWLVRGGPSSGAPPPSK-NH2 [g319]"
  EC50 [nM]: 0.0361
- SUBSTANCE: "HSQGTFTSDYSKYLDSERARDFVAWLEAGG-NH2 [g840]"
  EC50 [nM]: 0.145
- SUBSTANCE: "HSQGTFTSDYSKYLDSRRAQDFVQWLVRGGKNNRNNIAK-NH2 [g321]"
  EC50 [nM]: 0.0272
